The reported measurements were obtained from patent US8598168B2.

Read-out record for HDAC-1 (Homo sapiens, UniProt Q13547): IC50

The following compounds have reported results that may help.
- SMILES_ENTRY: "Nc1ccc(-c2cccs2)cc1NC(=O)c1ccc(CN2CCN(C3CCCC3)CC2)cc1"
  TARGET_DESC: "HDAC-1 (Homo sapiens, UniProt Q13547)"
  IC50: "< 1000 nM"
- SMILES_ENTRY: "Nc1ccc(-c2cccs2)cc1NC(=O)c1ccc(CN2CC[C@H](Nc3cccnc3)C2)cc1"
  TARGET_DESC: "HDAC-1 (Homo sapiens, UniProt Q13547)"
  IC50: "< 1000 nM"
- SMILES_ENTRY: "CN(C)[C@H]1CCN(Cc2ccc(C(=O)Nc3cc(-c4cccs4)ccc3N)cc2)C1"
  TARGET_DESC: "HDAC-1 (Homo sapiens, UniProt Q13547)"
  IC50: "< 1000 nM"
- SMILES_ENTRY: "CCN(CC)CCSc1ccc(C(=O)Nc2cc(-c3cccs3)ccc2N)cc1"
  TARGET_DESC: "HDAC-1 (Homo sapiens, UniProt Q13547)"
  IC50: "< 1000 nM"
- SMILES_ENTRY: "Nc1ccc(-c2cccs2)cc1NC(=O)c1ccc(CN2CC[C@H](O)C2)cc1"
  TARGET_DESC: "HDAC-1 (Homo sapiens, UniProt Q13547)"
  IC50: "< 1000 nM"

[in] Notebook entry, HDAC-1 (Homo sapiens, UniProt Q13547) assay: IC50 of `Nc1ccc(-c2cccs2)cc1NC(=O)c1ccc(CN2CCC(N3CCOCC3)CC2)cc1` = ?
[out] < 1000 nM

[in] // repeat for `CN(C)CCN(C)Cc1ccc(C(=O)Nc2cc(-c3cccs3)ccc2N)cc1` and report
[out] < 1000 nM

[in] // repeat for `CC(=O)N[C@H]1CCN(Cc2ccc(C(=O)Nc3cc(-c4cccs4)ccc3N)cc2)C1` and report
[out] < 1000 nM

----------
# Tested on: human colon cancer HCT116 cells
# ASSAY_OVERVIEW: MTT Assay
# Assay type: cell-based
# PARTICULARS: HCT-116, 72 hours, Table 21
pIC50: −log10 of the molar value.
METRIC: pIC50

The following compounds have reported results that may help.
- COMPOUND: "CN(C)[C@H]1CCN(Cc2ccc(C(=O)Nc3cc(-c4cccs4)ccc3N)cc2)C1 [compound 81]"
  TARGET_DESC: "human colon cancer HCT116 cells"
  pIC50: "> 6.00"
- COMPOUND: "COCCN(CCOC)Cc1ccc(C(=O)Nc2cc(-c3cccs3)ccc2N)cc1 [compound 10]"
  TARGET_DESC: "human colon cancer HCT116 cells"
  pIC50: "> 6.00"
- COMPOUND: "CN(C)CCSc1ccc(C(=O)Nc2cc(-c3cccs3)ccc2N)cc1 [compound 106]"
  TARGET_DESC: "human colon cancer HCT116 cells"
  pIC50: "5.30 to 6.00"

[in] Notebook entry, human colon cancer HCT116 cells assay: pIC50 of Nc1ccc(-c2cccs2)cc1NC(=O)c1ccc(CN2CCC[C@H]2CN2CCCC2)cc1 [compound 86] = ?
[out] > 6.00

[in] // repeat for Nc1ccc(-c2cccs2)cc1NC(=O)c1ccc(CN2CC[C@H](O)C2)cc1 [compound 82] and report
[out] > 6.00

[in] // repeat for Nc1ccc(-c2cccs2)cc1NC(=O)c1ccc(CN2CCN(c3ccccn3)CC2)cc1 [compound 89] and report
[out] > 6.00

[in] // repeat for CCN(CC)Cc1ccc(C(=O)Nc2cc(-c3cccs3)ccc2N)cc1 [compound 79] and report
[out] > 6.00

[in] // repeat for CN(C)[C@@H]1CCN(Cc2ccc(C(=O)Nc3cc(-c4cccs4)ccc3N)cc2)C1 [compound 9] and report
[out] > 6.00

[in] // repeat for Nc1ccc(-c2cccs2)cc1NC(=O)c1ccc(CN2CC[C@@H](O)C2)cc1 [compound 83] and report
[out] 5.30 to 6.00

[in] // repeat for CC(C)N1CCN(Cc2ccc(C(=O)Nc3cc(-c4cccs4)ccc3N)cc2)CC1 [compound 15] and report
[out] > 6.00

[in] // repeat for CN(C)[C@H]1CC(=O)N(Cc2ccc(C(=O)Nc3cc(-c4cccs4)ccc3N)cc2)C1=O [compound 242] and report
[out] 5.30 to 6.00

[in] // repeat for CN(C)CCN(C)C(=O)NCc1ccc(C(=O)Nc2cc(-c3cccs3)ccc2N)cc1 [compound 222] and report
[out] > 6.00

[in] // repeat for CN(C)[C@H]1CCN(c2ccc(C(=O)Nc3cc(-c4cccs4)ccc3N)cc2)C1 [compound 101] and report
[out] > 6.00

[in] // repeat for CC(=O)N[C@@H]1CCN(Cc2ccc(C(=O)Nc3cc(-c4cccs4)ccc3N)cc2)C1 [compound 84] and report
[out] > 6.00

[in] // repeat for Nc1ccc(-c2cccs2)cc1NC(=O)c1ccc(CN2CCC(N3CCOCC3)CC2)cc1 [compound 77] and report
[out] > 6.00

[in] // repeat for Nc1ccc(-c2cccs2)cc1NC(=O)c1ccc(CN2CCN(Cc3ccccc3)CC2)cc1 [compound 91] and report
[out] > 6.00

[in] // repeat for Nc1ccc(-c2cccs2)cc1NC(=O)c1ccc(CN2CCCCC2)cc1 [compound 12] and report
[out] 5.30 to 6.00

----------
# ASSAY_OVERVIEW: Log D (comparison with previously disclosed compounds)
# Format: physicochemical
# PARTICULARS: pH 7.4
Form field: logD (one value per entry).
Please respond with just the number, no unit label.

- SMILES_ENTRY: "CN(C)CCN(C)C(=O)NCc1ccc(C(=O)Nc2cc(-c3cccs3)ccc2N)cc1"
  logD: 1.05
- SMILES_ENTRY: "CN(C)[C@@H]1CCN(Cc2ccc(C(=O)Nc3cc(-c4cccs4)ccc3N)cc2)C1"
  logD: 2.11

Let's switch to this molecule now.
[in] Entry `Nc1ccc(-c2cccs2)cc1NC(=O)c1ccc(CN2CCN(CCn3ccnc3)CC2)cc1` has what logD?
[out] 1.54

----------
# ASSAY_OVERVIEW: Log D (comparison with previously disclosed compounds)
# Type: physicochemical
# PARTICULARS: pH 7.4
METRIC: logD
Please respond with just the number, no unit label.

The following compounds have reported results that may help.
- SMILES_ENTRY: "CN1CCN(Cc2ccc(C(=O)Nc3cc(-c4cccs4)ccc3N)cc2)CC1"
  VALUE_OBSERVED: 2.29
- SMILES_ENTRY: "Nc1ccc(-c2cccs2)cc1NC(=O)c1ccc(CN2CCCC2)cc1"
  VALUE_OBSERVED: 3.15
- SMILES_ENTRY: "Nc1ccc(-c2cccs2)cc1NC(=O)c1ccc(CN2CCN(c3ccncc3)CC2)cc1"
  VALUE_OBSERVED: 3.32
- SMILES_ENTRY: "CN(C)CCSc1ccc(C(=O)Nc2cc(-c3cccs3)ccc2N)cc1"
  VALUE_OBSERVED: 2.85
- SMILES_ENTRY: "CC(=O)N[C@@H]1CCN(Cc2ccc(C(=O)Nc3cc(-c4cccs4)ccc3N)cc2)C1"
  VALUE_OBSERVED: 2.15

[in] Entry `CN(C)[C@H]1CCN(c2ccc(C(=O)Nc3cc(-c4cccs4)ccc3N)cc2)C1` has what logD?
[out] 1.94

[in] // repeat for `COCCN1CCN(c2ccc(C(=O)Nc3cc(-c4cccs4)ccc3N)cc2)CC1` and report
[out] 1.78

[in] // repeat for `Nc1ccc(-c2cccs2)cc1NC(=O)c1ccc(CN2CC[C@H](O)C2)cc1` and report
[out] 2.6

[in] // repeat for `CCN(C)Cc1ccc(C(=O)Nc2cc(-c3cccs3)ccc2N)cc1` and report
[out] 3.2

[in] // repeat for `CN(C)CCOC(=O)NCc1ccc(C(=O)Nc2cc(-c3cccs3)ccc2N)cc1` and report
[out] 1.85

[in] // repeat for `Nc1ccc(-c2cccs2)cc1NC(=O)c1ccc(N2CCC(N3CCOCC3)CC2)cc1` and report
[out] 2.51

[in] // repeat for `Nc1ccc(-c2cccs2)cc1NC(=O)c1ccc(N2CCN(C3CCCC3)CC2)cc1` and report
[out] 2.68

[in] // repeat for `CCN(CC)CCSc1ccc(C(=O)Nc2cc(-c3cccs3)ccc2N)cc1` and report
[out] 2.58

[in] // repeat for `CC(=O)N[C@H]1CCN(Cc2ccc(C(=O)Nc3cc(-c4cccs4)ccc3N)cc2)C1` and report
[out] 2.15

[in] // repeat for `COCCN(CCOC)Cc1ccc(C(=O)Nc2cc(-c3cccs3)ccc2N)cc1` and report
[out] 3.1

[in] // repeat for `Nc1ccc(-c2cccs2)cc1NC(=O)c1ccc(CN2CCC[C@@H](O)C2)cc1` and report
[out] 3.03
